- test target: Cyclin-dependent kinase 2/cyclin E1 (Homo sapiens)
- assay overview: Inhibition of CDK2/cyclin E (unknown origin) using peptide substrate in presence of [gamma33P]ATP by image analyser
- Assay type: protein-complex assay
# Lookup of reported IC50 keyed by entry
Give the quantity in µM, number only.

Any idea what its IC50 is? The molecule is O=c1[nH]cc(C2CCCC2)c2nccn12 4

Any idea what its IC50 is? The molecule is O=c1[nH]cc(C2CCCCC2)c2nc(I)c(I)n12 4.6

---

- test target: Cyclin-dependent kinase 4/cyclin D1 (Homo sapiens, UniProt P11802)
- Sequence (P11802 whole entry): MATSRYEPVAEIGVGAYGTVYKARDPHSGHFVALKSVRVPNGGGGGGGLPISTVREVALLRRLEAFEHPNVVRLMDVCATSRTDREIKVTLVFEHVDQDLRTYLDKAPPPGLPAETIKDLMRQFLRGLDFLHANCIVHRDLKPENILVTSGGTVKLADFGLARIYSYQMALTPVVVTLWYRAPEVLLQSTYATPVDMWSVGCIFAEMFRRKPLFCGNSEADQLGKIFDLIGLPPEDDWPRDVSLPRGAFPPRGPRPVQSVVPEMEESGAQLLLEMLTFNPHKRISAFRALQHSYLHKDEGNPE
- Sequence (P24385 whole entry, further chain): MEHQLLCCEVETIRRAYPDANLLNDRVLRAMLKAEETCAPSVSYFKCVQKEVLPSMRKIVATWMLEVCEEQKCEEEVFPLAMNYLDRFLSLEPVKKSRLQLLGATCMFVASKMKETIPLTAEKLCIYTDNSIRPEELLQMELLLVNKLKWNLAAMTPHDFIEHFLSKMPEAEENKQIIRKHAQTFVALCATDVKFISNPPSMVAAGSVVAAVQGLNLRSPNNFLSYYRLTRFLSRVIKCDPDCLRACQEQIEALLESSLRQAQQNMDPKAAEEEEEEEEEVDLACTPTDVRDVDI
- assay overview: Inhibition of CDK4/cyclin D1 (unknown origin) using peptide substrate in presence of [gamma33P]ATP by image analyser
endpoint name: pIC50
Here pIC50 is given on a logarithmic scale as minus log10 of the concentration in mol/L.

Any idea what its pIC50 is? The molecule is O=c1[nH]cc(C2CCCCC2)c2nccn12 4.84

---

- test target: Cyclin-dependent kinase 2 (Homo sapiens)
endpoint name: Kd (µM)
Give the quantity in µM, number only.

Any idea what its Kd is? The molecule is O=c1[nH]cc(C2CCCCC2)c2nccn12 4.1

---

- test target: Cyclin-dependent kinase 2/cyclin E1 (Homo sapiens, UniProt P24941)
- assay overview: Inhibition of CDK2/cyclin E (unknown origin) expressed in baculovirus infected Sf9 cells using histone H1 as substrate in presence of [gamma33P]ATP by image analyser
endpoint name: IC50 (µM)
Give the quantity in µM, number only.

Any idea what its IC50 is? The compound is O=c1[nH]cc(-c2ccccc2)c2nccn12 6.6

---

- test target: CDK2/Cyclin A2 (Homo sapiens)
- assay overview: Inhibition of CDK2/cyclin A2 (unknown origin) using peptide substrate in presence of [gamma33P]ATP by image analyser
endpoint name: IC50 (nM)
Give the quantity in nM, number only.

Any idea what its IC50 is? The compound is NS(=O)(=O)c1ccc(Nc2nc(-c3cccc(-c4ccccc4)c3)c3nc[nH]c3n2)cc1 22

Here's the next entry for you.
Any idea what its IC50 is? The compound is O=c1[nH]cc(C2CCCCC2)c2nccn12 680

---

# Lookup of reported IC50 keyed by entry
- test target: CDK9/cyclin T1 (Homo sapiens, UniProt P50750)
- Sequence (O60563 whole entry): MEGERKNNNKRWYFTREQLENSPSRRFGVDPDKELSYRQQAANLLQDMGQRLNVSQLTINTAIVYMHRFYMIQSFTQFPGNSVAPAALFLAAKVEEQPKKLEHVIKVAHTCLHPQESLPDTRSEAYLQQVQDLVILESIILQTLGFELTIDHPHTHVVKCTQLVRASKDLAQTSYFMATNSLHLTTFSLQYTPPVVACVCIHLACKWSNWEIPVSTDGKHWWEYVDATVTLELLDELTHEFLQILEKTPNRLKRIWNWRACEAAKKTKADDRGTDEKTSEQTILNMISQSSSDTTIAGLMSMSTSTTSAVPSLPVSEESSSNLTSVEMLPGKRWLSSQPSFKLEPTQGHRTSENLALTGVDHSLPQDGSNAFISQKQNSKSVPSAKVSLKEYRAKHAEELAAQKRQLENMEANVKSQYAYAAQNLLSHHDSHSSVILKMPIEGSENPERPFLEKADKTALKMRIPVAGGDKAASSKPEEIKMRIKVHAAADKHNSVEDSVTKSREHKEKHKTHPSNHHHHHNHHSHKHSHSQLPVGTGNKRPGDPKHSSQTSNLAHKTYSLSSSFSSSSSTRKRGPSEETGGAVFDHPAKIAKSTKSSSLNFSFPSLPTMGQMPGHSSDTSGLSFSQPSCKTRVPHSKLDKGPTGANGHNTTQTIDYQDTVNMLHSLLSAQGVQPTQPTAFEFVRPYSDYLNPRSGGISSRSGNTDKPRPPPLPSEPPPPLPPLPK
- Sequence (P50750 whole entry): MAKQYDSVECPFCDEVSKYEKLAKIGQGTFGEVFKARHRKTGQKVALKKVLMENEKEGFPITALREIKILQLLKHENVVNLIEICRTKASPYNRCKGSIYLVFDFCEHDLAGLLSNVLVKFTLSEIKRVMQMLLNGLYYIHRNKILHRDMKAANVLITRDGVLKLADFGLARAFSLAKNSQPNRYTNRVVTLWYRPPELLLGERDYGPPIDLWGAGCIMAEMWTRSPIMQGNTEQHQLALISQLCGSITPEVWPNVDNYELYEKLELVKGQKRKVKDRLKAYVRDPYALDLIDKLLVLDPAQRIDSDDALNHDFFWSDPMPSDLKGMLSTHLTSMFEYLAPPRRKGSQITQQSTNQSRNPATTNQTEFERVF
- assay overview: Inhibition of CDK9/cyclin T1 (unknown origin) using peptide substrate in presence of [gamma33P]ATP by image analyser
Give the quantity in µM, number only.

Any idea what its IC50 is? The compound is O=c1[nH]cc(C2CCCCC2)c2nccn12 10

Here's the next entry for you.
Any idea what its IC50 is? The compound is NS(=O)(=O)c1ccc(Nc2nc(-c3cccc(-c4ccccc4)c3)c3nc[nH]c3n2)cc1 9.4

---

- test target: Cyclin-dependent kinase 2/cyclin E1 (Homo sapiens)
- assay overview: Inhibition of CDK2/cyclin E (unknown origin) using peptide substrate in presence of [gamma33P]ATP by image analyser
- Type: protein-complex assay
# Lookup of reported pIC50 keyed by entry
Here pIC50 is given on a logarithmic scale as minus log10 of the concentration in mol/L.

Write down the reported pIC50 of O=c1[nH]cc(/C=C/c2ccccc2)c2nccn12 , test system: Cyclin-dependent kinase 2/cyclin E1 (Homo sapiens). 4.75

Write down the reported pIC50 of O=c1[nH]cc(-c2cccc(O)c2)c2nccn12 , test system: Cyclin-dependent kinase 2/cyclin E1 (Homo sapiens). 5.32

Write down the reported pIC50 of NS(=O)(=O)c1ccc(Nc2nc(-c3cccc(-c4ccccc4)c3)c3nc[nH]c3n2)cc1 , test system: Cyclin-dependent kinase 2/cyclin E1 (Homo sapiens). 7.51

More entries:
Write down the reported pIC50 of O=c1[nH]cc(C2CCCCC2)c2ncc(I)n12 , test system: Cyclin-dependent kinase 2/cyclin E1 (Homo sapiens). 4.85

Write down the reported pIC50 of O=c1[nH]cc(C2=CCCCC2)c2nccn12 , test system: Cyclin-dependent kinase 2/cyclin E1 (Homo sapiens). 5.92

Write down the reported pIC50 of O=c1[nH]cc(C2CCCCC2)c2nccn12 , test system: Cyclin-dependent kinase 2/cyclin E1 (Homo sapiens). 6.18

Write down the reported pIC50 of O=c1[nH]cc(C2=CCCC2)c2nccn12 , test system: Cyclin-dependent kinase 2/cyclin E1 (Homo sapiens). 5.31

meta.source: ChEMBL document CHEMBL4732259
